Data origin: paper PMC10397247

Target: T1, 4H348-bH
T1 chain: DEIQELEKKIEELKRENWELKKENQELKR
Test: two-hybrid library CCNG1;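 also: natural log of median RNA to DNA barcode read ratio; higher means stronger binding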
Property Measured: interaction score
// print number alone

Here is how some binders turned out for interaction score.
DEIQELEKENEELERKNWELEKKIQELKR [4H182-bH]: -0.493
DEIQELEKKIEELKRENWELKKENQELKR [4H348-bH]: 0.666
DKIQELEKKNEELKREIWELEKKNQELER [4H2503-bH]: -0.941

Provide only the value of recorded interaction score for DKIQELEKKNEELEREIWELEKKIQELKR [4H2438-bH] -0.861

Provide only the value of recorded interaction score for DKIQELKKKNEELKRKNWELEKEIQELER [4H3057-bH] -0.361

Provide only the value of recorded interaction score for DEIQELEKKIEELERKNWELKKKNQELER [4H319-bH] 0.143

Provide only the value of recorded interaction score for DKIQELKKKIEELKRKIWELEKENQELER [4H2915-bH] -0.507

Provide only the value of recorded interaction score for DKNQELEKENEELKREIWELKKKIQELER [4H3277-bH] 0.219

Provide only the value of recorded interaction score for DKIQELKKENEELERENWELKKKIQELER [4H2717-bH] -0.364
